# Tested on: SK-MEL-2 melanoma
Hi there, I'd appreciate the recorded GI50 for every entry that follows.

Lab book: GI50 of COc1cc(OC)cc(-c2nc3sccn3c2/C=N/N=C(N)N)c1 noted as 16.7 µM

Lab book: GI50 of O=C1NCN(c2ccccc2)C12CCN(CCCC(c1ccc(F)cc1)c1ccc(F)cc1)CC2 noted as 1.56 µM

Lab book: GI50 of COc1ccc(OC)c(NC(=O)c2cccc(NC3=C(Cl)C(=O)N(Cc4ccccc4)C3=O)c2)c1 noted as > 100 µM

====

# System: HL-60(TB) leukemia
# Experiment summary: NCI tumour cell line growth inhibition, 48 h
Reported endpoint: TGI

Lab entry: HL-60(TB) leukemia assay, compound COc1ccc(OC)c(NC2=NCCO2)c1 , TGI = > 100 µM

Lab entry: HL-60(TB) leukemia assay, compound NC(=S)Nc1ccc2c(c1)oc1ccccc12 , TGI = > 100 µM

Lab entry: HL-60(TB) leukemia assay, compound CCOc1cc(C(=O)O)c2c(ccc3ccc(OC)c(OC)c32)c1OC , TGI = > 100 µM

Lab entry: HL-60(TB) leukemia assay, compound Nc1ncnc2c1sc(=S)n2-c1ccccc1 , TGI = > 100 µM

Lab entry: HL-60(TB) leukemia assay, compound C=CC(C)(C)C1(CC(OC)OC)C(=O)N(C)c2ccccc21 (stereo unspecified) , TGI = > 25 µM

Lab entry: HL-60(TB) leukemia assay, compound O=C(O)C1CCN(Cc2oc(CO)cc(=O)c2O)C1 (stereo unspecified) , TGI = > 100 µM

====

# Tested on: NCI/ADR-RES ovarian
# Experiment summary: NCI tumour cell line growth inhibition, 48 h
Hi there, I'd appreciate the recorded TGI for every entry that follows.

Lab book: TGI of Cc1cc(C(=O)Nc2cc(Oc3ccc4nc(NC(=O)C5CC5)cn4n3)ccc2C)n(C)n1 noted as > 10 µM

Lab book: TGI of Clc1ccccc1[C@@H]1C[C@@H]2Cc3cc(Br)c4ccccc4c3N1O2 noted as > 100 µM

Lab book: TGI of C/C(=N/NC(=S)Nc1cccc(Cl)c1)c1ccccn1 noted as 4.58 µM

Lab book: TGI of COc1ccc(C(C#N)=C2C=CC(=NO)C=C2)cc1 noted as 13.3 µM

Lab book: TGI of N/C(=N\S(=O)(=O)c1ccc(-c2ccccn2)s1)Nc1ccc(Cl)cc1 noted as 43.5 µM

Lab book: TGI of O=C1OCC(c2ccc(O)cc2)=C1c1cc(O)c(O)c(O)c1 noted as 62.8 µM

Lab book: TGI of COC(NC(N)=O)C(=O)O (configuration not stated) noted as > 100 µM

====

# Tested on: SW-620 colon
# Experiment summary: NCI tumour cell line growth inhibition, 48 h
Reported endpoint: TGI

Lab entry: SW-620 colon assay, compound C=CC(C)(C)C1(CC(OC)OC)C(=O)N(C)c2ccccc21 (stereo unspecified) , TGI = > 25 µM

Lab entry: SW-620 colon assay, compound CC(=Nc1ccccc1)C1=C(O)C(Cc2cccc(F)c2)NC1=O (stereo unspecified) , TGI = > 100 µM

Lab entry: SW-620 colon assay, compound CN(C)C(=S)/N=c1\ssc(=S)n1Cc1cccs1 , TGI = > 100 µM

Lab entry: SW-620 colon assay, compound O=C1NC(=O)[C@@]2(CC[C@@H](O)C2)c2ccncc21 , TGI = > 100 µM

Lab entry: SW-620 colon assay, compound Cc1cc2c(c3nocc13)C(=O)c1ccccc1C2=O , TGI = > 100 µM

Lab entry: SW-620 colon assay, compound O=C1CCCCC/C1=C\c1cccc([N+](=O)[O-])c1 , TGI = > 100 µM
